target: SARS-COV2-S1 RBD (mouse IgG2Fc tag) (SARS-CoV-2, UniProt P0DTC2 319-537); test: FACS, S1 RBD-mFc on Vero E6 (ACE2)
Collected Competition Factor values appear next to each entry.
experimental.endpoint: Competition Factor

variant 6-76 (Fc fusion, VHH-Fc) VHH: EVQLVESGGGLVQPGGSLRLSCAASGLAFDFDGMGWFRQAPGKEREGVAAINSGGSTYYADSVKGRFTISADNSKNTAYLQMNSLKPEDTAVYYCARFFRAHDYWGQGTLVTVSS    9.96
variant 5-34 (Fc fusion, VHH-Fc) VHH: EVQLVESGGGLVQPGGSLRLSCAASGRTFSRYIMGWFRQAPGKEREFVAAISWSGGDNTYYADSVKGRFTISADNSKNTAYLQMNSLKPEDTAVYYCAAYRIVVGGTSPGDWRWGQGTLVTVSS    5.69
variant 6-26 (Fc fusion, VHH-Fc) VHH: EVQLVESGGGLVQPGGSLRLSCAASGDTFSTSWMGWFRQAPGKEREFVATINTGGGTNYADSVKGRFTISADNSKNTAYLQMNSLKPEDTAVYYCARVTTSFDYWGQGTLVTVSS    6.41
variant 6-73 (Fc fusion, VHH-Fc) VHH: EVQLVESGGGLVQPGGSLRLSCAASGHTFSGYAMGWFRQAPGKEREFVAVITREGSTYYADSVKGRFTISADNSKNTAYLQMNSLKPEDTAVYYCARLGGEGFDYWGQGTLVTVSS    7.99
variant 6-20 (Fc fusion, VHH-Fc) VHH: EVQLVESGGGLVQPGGSLRLSCAASGSTLPYHAMGWFRQAPGKEREFVAAITWNGASTSYADSVKGRFTISADNSKNTAYLQMNSLKPEDTAVYYCARDRYYDTSASYFESETWGQGTLVTVSS    9.95
variant 6-60 (Fc fusion, VHH-Fc) VHH: EVQLVESGGGLVQPGGSLRLSCAASGDTYGSYWMGWFRQAPGKEREFVATISQSGAATAYADSVKGRFTISADNSKNTAYLQMNSLKPEDTAVYYCAGLLRYSGTYYDAFDVWGQGTLVTVSS    12.6
variant 6-55 (Fc fusion, VHH-Fc) VHH: EVQLVESGGGLVQPGGSLRLSCAASGFTMSSSWMGWFRQAPGKEREFVARITSGGSTGYADSVKGRFTISADNSKNTAYLQMNSLKPEDTAVYYCASVDGYFDYWGQGTLVTVSS    7.98
